Molecular target: T1, human Siglec15-Fc fusion protein (human, UniProt Q6ZMC9 20-263)
T1 construct: Bought protein (Acro #SG5-H5253 is named for the selection); also called recombinant Siglec 15-Fc fusion protein (Acro #SG5-H5253); human Siglec15-Fc protein; not shown: Fc part of the bought fusion protein
T1 sequence (looked up): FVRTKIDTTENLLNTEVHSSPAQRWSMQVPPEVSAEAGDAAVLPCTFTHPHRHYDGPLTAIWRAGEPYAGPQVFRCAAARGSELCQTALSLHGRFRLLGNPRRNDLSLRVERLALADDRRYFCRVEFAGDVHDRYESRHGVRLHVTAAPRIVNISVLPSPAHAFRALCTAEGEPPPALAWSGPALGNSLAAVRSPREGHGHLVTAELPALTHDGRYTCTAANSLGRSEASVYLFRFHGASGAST
Experiment: SPR Biacore T200; Siglec15-Fc captured on Protein A chip, scFv as analyte
reported_property: log10 koff (log10 of the value in s⁻¹)
Please interpret these as log10 of koff where koff is in s⁻¹.

### Prompt Tell me the measured log10 koff of 2020EP032-H11 scFv (scFv, V domains shown, Tested as a single-chain scFv made in E. coli with a C-terminal flag and 6x His tag) VH: EVQLVESGGGLVKPGGSLRLSCAASGFTFSSYSMNWVRQAPGKGLEWVSSISSSSSYIYYADSVKGRFTISRDNAKNSLYLQMNSLRAEDTAVYYCARDYRGYSGQNYYGMDVWGQGTTVTVSS VL: QSALTQPPSVSAAPRQKVTISCSGSSSNIGNNDVSWYQQLPGTVPKLLIYDNNKRPSGIPDRFSGSKSGTSASLGITGLQTGDEADYYCGVWDSSLSGYVFGTGTKVTVL , please.
### Response -3.50

### Prompt If you can, please state the reported log10 koff value of 2019EP47-A05 scFv (scFv, V domains shown, Tested as a single-chain scFv made in E. coli with a C-terminal flag and 6x His tag) VH: QMQLVQSGAEVKKPGSSVKVSCKASGGTFSSYAISWVRQAPGQGLEWMGRIIPILGIANYAQKFQGRVTITADKSTSTAYMELSSLRSEDTAVYYCAVNTYYYDSSGYYYEYFDYWGQGTLVTVSS VL: EIVLTQSPSSLSASVGDRVTITCQASQHINNHLNWYQQKPGKGPKLLIYDVSNLEAGVPSRFSASGSGTDFSFTISSLQPEDFATYYCQQYDSLPLTFGQGTKVEVK .
### Response -4.11

### Prompt Param item = 2020EP032-A12 scFv (scFv, V domains shown, Tested as a single-chain scFv made in E. coli with a C-terminal flag and 6x His tag) VH: QMQLVQSGGGVVQPGRSLRLSCAASGFTFSSYGMHWVRQAPGKGLEWVAVISDDGSNKYYADSVKGRFTISRDNSKNTLYLQMNSLRAEDTAVYYCAKKDVATILFDNWGQGTLVTVSS VL: VIWMTQSPSTLSASVGDRVTITCRASQSITRWLAWYQQKPGKAPKLLIYKTSDLDGGVPSRFSGSESGAEFTLTISSLQPDDVATYFCQHYNTRSWTFGQGTKVELK ; retrieve measured log10 koff.
### Response -3.53

### Prompt Give the measured log10 koff of 2020EP083-H01 scFv (scFv, V domains shown, Tested as a single-chain scFv made in E. coli with a C-terminal flag and 6x His tag) VH: QLQLQESGPGLVKPAETLSLTCTVSGGSVSSGDNLWDWIRQPPGKGLEWIGSIRDSGNPAYNPSLRSRVTISADTSTDQFSLKLTSVTAADTAVYYCARHSDGGYGKIYGMDVWGQGTTVTVSS VL: DIQLTQSPSFLSASVGDRVTITCRASQAVSTYLVWYLQKPGQAPRLLIYAASTLQSGVPSRFSGSGSGTDFTLTISRLQPEDAGTYFCQQLNSNALVFGGGTKVDIK .
### Response -2.83

### Prompt Consider the binder 2020EP032-B03 scFv (scFv, V domains shown, Tested as a single-chain scFv made in E. coli with a C-terminal flag and 6x His tag) VH: QVQLQQWGAGLLKPSETLSLTCAVYGGSFSGYYWSWIRQPPGKGLEWIGEINHSGSTNYNPSLKSRVTISVDTSKNQFSLKLSSVTAADTAVYYCARGPLRKYYDFWSGSRNYYYYGMDVWGQGTTVTVSS VL: QPVLTQDPAVSVALGQTVRITCQGDSLRSNYASWYQLKPGQAPVLVIYDKNNRPSGIPDRFSGSNSGNTASLTIAGAQAEDEADYYCTSRDSSGTVFGGGTKLTVL and give its measured log10 koff.
### Response -3.55

Reference for the values: patent US20240336683A1
